Where these numbers come from: ChEMBL document CHEMBL1133961

assay: Kinetic data for inhibition of Beta-1,4-GalT by polymer-supported Nacetylglucosamine.; details: human
Measured Quantity: Km

Enquiry: For the compound CC(=O)N[C@@H]1[C@@H](O)[C@H](O)[C@@H](CO)O[C@H]1O [N-ACETYLGLUCOSAMINE] , what Km is on record?
Return: 10.5 mM

----------
assay: Kinetic data for inhibition of Beta-1,4-GalT by polymer-supported Nacetylglucosamine.; set-up: species or system Homo sapiens
Measured Quantity: pKi
pKi (log units): -log10 of the concentration in mol/L.

Enquiry: Look up pKi: CC(=O)N[C@@H]1[C@@H](O)[C@H](O)[C@@H](CO)O[C@H]1O
Return: 3.27
